Values were extracted from PubChem BioAssay.

molecular target: L-lactate dehydrogenase (Plasmodium falciparum (isolate CDC / Honduras)); experiment: PfLDH activity inhibition – cell lysate, 3D7 strain, counter-screen for P. falciparum growth inhibition project (AID 2304);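 further: 0% = vehicle and 100% = reference inhibitor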; details: P. falciparum 3D7 crude extract, LDH APAD/NBT absorbance; at 2 µM; stronger effect = higher value
List of inhibition values.
Give the value in % but do not write % after it.

Worked examples, 4 molecules total:
>>> print(df.to_string())
                                   molecule  measurement
0  O=C1c2cc(I)ccc2SC1c1ccccc1 (stereo not given)           -2
1     Cc1cc(OCc2ccncc2)cc2c1C(=O)CC(C)(C)O2           -5
2  COCc1cccc(-c2cc(-c3ccc(S(C)(=O)=O)cc3)cnc2N)c1           -2
3  Cc1ccc2nc(C)cc(NC(=O)Nc3ccc(N(C)C)cc3)c2c1           -3

Now look at this entry.
Record `Cc1noc(C)c1-c1cccc(CNCc2cccc(-c3csc(-c4nc5ccccc5[nH]4)c3)c2)c1` / L-lactate dehydrogenase (Plasmodium falciparum (isolate CDC / Honduras)), inhibition recorded as -7

----------
assay: inhibitors of mitochondrial cytochrome c release, biochemical, purified mitochondria (AID 1603); details: stronger effect = lower value;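 further: mouse liver mitochondria challenged with calcium chloride; signal normalized to the plate average as 100%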
List of cytochrome c release ratio values.

Worked examples, 5 molecules total:
>>> df
                                   molecule               assay_readout  measurement
0            O=C(O)c1cc(=O)c2cccc(O)c2[nH]1  cytochrome c release ratio         1.01
1  CCCCN1CCCCC1C(=O)Nc1c(C)cccc1C (stereo not drawn)  cytochrome c release ratio         0.81
2  CC(C(=O)O)c1cccc(Oc2ccccc2)c1 (stereo not drawn)  cytochrome c release ratio         0.68
3  NC(N)=NCCC[C@@H](NC(=O)[C@@H](N)Cc1ccc(O)cc1)C(=O)O  cytochrome c release ratio         0.94
4  CC(=O)NC(Cc1ccccc1)C(=O)O (stereo not drawn)  cytochrome c release ratio         0.42

Now look at this entry.
Just so you know, measured cytochrome c release ratio for `COc1c2occc2cc2ccc(=O)oc12` came out at 2.13

----------
assay: ovarian cancer cell viability with rucaparib, profiling panel, oncology-focused library, rucaparib conditional (AID 1508598); details: patient-derived ovarian cancer cells, CellTiter-Glo viability, 144 h; at 0.0195 µM; OCI-P5x cells; with rucaparib 20 µM; stronger effect = lower value; 100% = cells with rucaparib alone
Assay readout: viability (%)
Give the value in % but do not write % after it.

Worked examples, 3 molecules total:
                                  structure  assay_readout  measurement
0  CC(C)n1c(/C=C/[C@@H](O)C[C@@H](O)CC(=O)O)c(-c2ccc(F)cc2)c2ccccc21      viability         44.2
1  COc1nc(N)nc2c1ncn2[C@@H]1O[C@H](CO)[C@@H](O)[C@@H]1O      viability           94
2  CNC(=O)c1ccccc1Sc1ccc2c(/C=C/c3ccccn3)n[nH]c2c1      viability          108

Now look at this entry.
Just so you know, measured viability for `Cc1cc(O)c2c(c1)C(=O)c1cccc(O)c1C2=O` came out at 104

----------
assay: antimalarial activity against Dd2 strain (AID 2302);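 further: 0% = DMSO untreated growth and 100% = chloroquine plus artemisinin killed control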; conditions: P. falciparum Dd2 in RBCs, LDH growth readout, 72 h; at 2 µM
Calls of active or inactive are those of the source.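 How the source made its calls: active means growth inhibition above 50% at the single 2 µM test dose, taken to imply half-maximal potency below 2 µM; inactive means the rest.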
Can you answer with just one of these options? True = active, False = inactive

Input line: # fetch the recorded call for Cc1cccc2[nH]c(-c3ccc(-c4cccc(CN5CCCC5CN)c4)s3)nc12 (centres undefined) here
Output line: False

Input line: # fetch the recorded call for `CC(=O)Nc1ccc(OCCN(Cc2ccccc2C(F)(F)F)c2ccc(C#N)c(C(F)(F)F)c2)cc1` here
Output line: True

Input line: # fetch the recorded call for `Cn1ncc2c3c(CCN4CCC(NCc5cc6c(cn5)OCCO6)CC4)c(Cl)cnc3ccc21` here
Output line: False

Input line: # fetch the recorded call for `COc1ccc(NC(=O)c2cc(-c3ccc(NC(C)=O)cc3)cnc2N)cc1` here
Output line: False

Input line: # fetch the recorded call for `Cc1ccc(CN2CCN(Cc3cccc(NC(=O)c4cccs4)c3)CC2)cc1C` here
Output line: True

Input line: # fetch the recorded call for `Fc1ccc2ncc(Cl)c(CCN3CCC(NCc4cc5c(cn4)OCCO5)CC3)c2c1` here
Output line: False

----------
test: stimulators of nuclear beta-catenin in C2C12, primary screen, imaging, WNT3A-conditioned medium, mouse C2C12, NPC library (AID 1117326); conditions: stimulation, at 2 µM, stronger effect = higher value
List of nuclear beta-catenin stimulation values.
Give the value in % but do not write % after it.

In [3]: df
Out[3]:
                                   compound                     assay_readout  measurement
0                  CCCCCCCCCCCCCCCC(=O)NCCO  nuclear beta-catenin stimulation          8.9
1  CC(=O)N(CC(O)CO)c1c(I)c(C(=O)NCC(O)CO)c(I)c(C(=O)NCC(O)CO)c1I (stereo not given)  nuclear beta-catenin stimulation         -1.5
2                      Cc1c(N)cccc1C(F)(F)F  nuclear beta-catenin stimulation          5.4

Just so you know, measured nuclear beta-catenin stimulation for COc1ccc(CCN(C)CCCC(C#N)(c2cc(OC)c(OC)c(OC)c2)C(C)C)cc1OC (stereo not given) came out at 0.7

Just so you know, measured nuclear beta-catenin stimulation for `O=C(O)C(=O)Nc1cccc(-c2nn[nH]n2)c1` came out at 1.9

Just so you know, measured nuclear beta-catenin stimulation for `C=C1C[C@H]2[C@@H]3C=C(C)C4=CC(=O)CC[C@]4(C)[C@H]3CC[C@]2(C)[C@@]1(OC(C)=O)C(C)=O` came out at 0.8

Just so you know, measured nuclear beta-catenin stimulation for `COc1c(C)c2c(c(O)c1C/C=C(\C)CCC(=O)OCCN1CCOCC1)C(=O)OC2` came out at 28.6

Just so you know, measured nuclear beta-catenin stimulation for `CC1=C(C)C(=O)C(CCCCC#CCCCC#CCO)=C(C)C1=O` came out at -0.7

Just so you know, measured nuclear beta-catenin stimulation for `O=S(=O)(O)NC1CCCCC1` came out at 0.3

----------
test: decreased DLD-1 cellular survival, CellTiter-Glo luminescent readout, NPC compound collection, primary HTS (AID 1117346); settings: DLD-1 viability, CellTiter-Glo luminescence; at 20 µM (top of the series)
Active and inactive are the calls of the source.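 How the source made its calls: active means compounds that lower survival of DLD-1 colon cancer cells in the luminescence readout, no cutoff given; inactive means the rest.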
Can you answer with just one of these options? yes (active), no (inactive)

Input line: # fetch the recorded call for `COc1ccc2c(c1OC)C(=O)O[C@@H]2[C@H]1c2c(cc3c(c2OC)OCO3)CCN1C` here
Output line: no

Input line: # fetch the recorded call for `CC(=C(CCOC(=O)C(C)C)SSC(CCOC(=O)C(C)C)=C(C)N(C=O)Cc1cnc(C)nc1N)N(C=O)Cc1cnc(C)nc1N` here
Output line: no

Input line: # fetch the recorded call for COC(=O)C1=C(C)NC(C)=C(C(=O)OC(C)(C)CN(C)CCC(c2ccccc2)c2ccccc2)C1c1cccc([N+](=O)[O-])c1 (stereo not drawn) here
Output line: yes

----------
test: stimulators of nuclear beta-catenin in C2C12, primary screen, imaging, WNT3A-conditioned medium, mouse C2C12, NPC library (AID 1117326); details: stimulation, at 2 µM, stronger effect = higher value
Assay readout: nuclear beta-catenin stimulation
Remember to put the unit after the number in your answer.

Just so you know, measured nuclear beta-catenin stimulation for COc1ccc2[nH]c(S(=O)Cc3ncc(C)c(OC)c3C)nc2n1 (stereo not drawn) came out at -0.9%

Just so you know, measured nuclear beta-catenin stimulation for CN1CCN(C2Cc3ccccc3Sc3ccc(Cl)cc32)CC1 (stereo not drawn) came out at -1.6%

Just so you know, measured nuclear beta-catenin stimulation for Cn1cc(S(C)=O)c(=O)c2ccc(F)cc21 (stereo not drawn) came out at 10.4%

----------
test: ovarian cancer cell viability with rucaparib, profiling panel, oncology-focused library, rucaparib conditional (AID 1508598); conditions: patient-derived ovarian cancer cells, CellTiter-Glo viability, 144 h; at 0.000305 µM; OCI-P5x cells; with rucaparib 20 µM; stronger effect = lower value; 100% = cells with rucaparib alone
List of viability values.
Give the value in % but do not write % after it.

Just so you know, measured viability for `CNC(=O)c1ccccc1Sc1ccc2c(/C=C/c3ccccn3)n[nH]c2c1` came out at 106

Just so you know, measured viability for `Cc1ccc(-n2nc(C(C)(C)C)cc2NC(=O)Nc2ccc(OCCN3CCOCC3)c3ccccc23)cc1` came out at 112

Just so you know, measured viability for `O=C(CCc1ccc(O)cc1)c1c(O)cc(O)cc1O` came out at 96.8

Just so you know, measured viability for `Cc1nc(Nc2ncc(C(=O)Nc3c(C)cccc3Cl)s2)cc(N2CCN(CCO)CC2)n1` came out at 103

Just so you know, measured viability for `O=C(O[C@@H]1Cc2c(O)cc(O)cc2O[C@@H]1c1cc(O)c(O)c(O)c1)c1cc(O)c(O)c(O)c1` came out at 103

Just so you know, measured viability for `CN1CC[C@H](c2c(O)cc(O)c3c(=O)cc(-c4ccccc4Cl)oc23)[C@H](O)C1` came out at 56.8
